Target: SHP2 protein (Homo sapiens, UniProt Q06124)
Sequence (Q06124 whole entry): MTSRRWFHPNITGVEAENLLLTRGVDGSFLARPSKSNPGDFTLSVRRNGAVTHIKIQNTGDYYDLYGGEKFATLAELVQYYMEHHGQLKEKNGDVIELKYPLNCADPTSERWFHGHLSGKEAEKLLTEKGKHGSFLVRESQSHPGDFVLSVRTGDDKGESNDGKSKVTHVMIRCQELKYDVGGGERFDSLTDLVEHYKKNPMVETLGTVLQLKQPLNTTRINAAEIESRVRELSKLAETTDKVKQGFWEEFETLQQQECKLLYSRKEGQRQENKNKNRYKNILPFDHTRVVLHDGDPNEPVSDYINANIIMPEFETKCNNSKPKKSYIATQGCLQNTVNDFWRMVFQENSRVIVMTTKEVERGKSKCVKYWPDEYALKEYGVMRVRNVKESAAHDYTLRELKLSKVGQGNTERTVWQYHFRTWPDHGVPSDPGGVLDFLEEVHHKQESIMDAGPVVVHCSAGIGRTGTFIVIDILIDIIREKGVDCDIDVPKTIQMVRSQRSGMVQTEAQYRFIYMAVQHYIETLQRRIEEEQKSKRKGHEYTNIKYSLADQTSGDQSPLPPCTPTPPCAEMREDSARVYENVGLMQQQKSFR
Assay: Measurement of SHP2 protein degradation in MV-4-11 cells (western blotting)
Assay type: cell-based
Parameters: endogenous in cells; host or cells: MV-4-11
Conditions: MV-4-11 cells, 100 nM, 24 hours
Description: Experimental Example 2: Measurement of SHP2 Protein Degradation in MV-4-11 Cells MV-4-11 cells were treated with the synthesized Example compound, and the amount of SHP2 protein present in the cells was measured using western blotting detection. […] [Cell Lysis and Sample preparation] […] Then, absorbance was measured at 562 nm with the SYNERGY H1 microplate reader from BioTek. After making a sample by quantifying the protein with the measured value, boiling was performed at 70° C. for 10 minutes. […]
Measure name: SHP2 degradation (%) 100 nM
Write the number in % without appending the unit.

Compound	Assayed system	Measure name	Numeric readout
Cc1ncsc1-c1ccc(CNC(=O)[C@@H]2C[C@@H](O)CN2C(=O)[C@@H](NC(=O)C2(F)CC2)C(C)(C)C)c(OCC2CCN(C(=O)CC(=O)Nc3cccc(Sc4ncc(N5CCC(C)(CN)CC5)nc4N)c3Cl)CC2)c1 [Example 32]	SHP2 protein (Homo sapiens, UniProt Q06124)	SHP2 degradation (%) 100 nM	95
Cc1ncsc1-c1ccc(CNC(=O)[C@@H]2C[C@@H](O)CN2C(=O)[C@@H](NC(=O)C2(F)CC2)C(C)(C)C)c(OCCN2CCN(C(=O)CC(=O)Nc3cccc(Sc4cnc(N5CCC(C)(CN)CC5)cn4)c3Cl)CC2)c1 [Example 52]	SHP2 protein (Homo sapiens, UniProt Q06124)	SHP2 degradation (%) 100 nM	96
Cc1ncsc1-c1ccc(CNC(=O)[C@@H]2C[C@@H](O)CN2C(=O)[C@@H](NC(=O)C2(F)CC2)C(C)(C)C)c(OCCN2CCN(C(=O)CC(=O)Nc3cccc(Sc4cnc(N5CCC(C)(N)CC5)cn4)c3Cl)CC2)c1 [Example 53]	SHP2 protein (Homo sapiens, UniProt Q06124)	SHP2 degradation (%) 100 nM	97.8
Cc1ncsc1-c1ccc(CNC(=O)[C@@H]2C[C@@H](O)CN2C(=O)[C@@H](NC(=O)C2(F)CC2)C(C)(C)C)c(OC2CC3(CCN(C(=O)CC(=O)Nc4cccc(Sc5cnc(N6CCC(C)(CN)CC6)cn5)c4Cl)CC3)C2)c1 [Example 50]	SHP2 protein (Homo sapiens, UniProt Q06124)	SHP2 degradation (%) 100 nM	98.4
Cc1ncsc1-c1ccc(CNC(=O)[C@@H]2C[C@@H](O)CN2C(=O)[C@@H](NC(=O)C2(F)CC2)C(C)(C)C)c(OCCC2CCN(C(=O)CC(=O)Nc3cccc(Sc4cnc(N5CCC(C)(N)CC5)cn4)c3Cl)CC2)c1 [Example 34]	SHP2 protein (Homo sapiens, UniProt Q06124)	SHP2 degradation (%) 100 nM	93.5

**Q:** Which SHP2 degradation (%) 100 nM value is on record for Cc1ncsc1-c1ccc(CNC(=O)[C@@H]2C[C@@H](O)CN2C(=O)[C@@H](NC(=O)C2(F)CC2)C(C)(C)C)c(OCCCN2CCC(CC(=O)Nc3cccc(Sc4ncc(N5CCC(C)(N)CC5)nc4N)c3Cl)CC2)c1 [Example 9] ?
**A:** 93.3

**Q:** Which SHP2 degradation (%) 100 nM value is on record for Cc1ncsc1-c1ccc(CNC(=O)[C@@H]2C[C@@H](O)CN2C(=O)[C@@H](NC(=O)C2(F)CC2)C(C)(C)C)c(OCCC2CCN(C(=O)CC(=O)Nc3cccc(Sc4ncc(N5CCC(C)(CN)CC5)nc4N)c3Cl)CC2)c1 [Example 37] ?
**A:** 89.5

**Q:** Which SHP2 degradation (%) 100 nM value is on record for Cc1ncsc1-c1ccc(CNC(=O)[C@@H]2C[C@@H](O)CN2C(=O)[C@@H](NC(=O)C2(F)CC2)C(C)(C)C)c(OCCC2CCN(C(=O)CC(=O)Nc3cccc(Sc4cnc(N5CCC(C)(CN)CC5)cn4)c3Cl)CC2)c1 [Example 36] ?
**A:** 93.5

**Q:** Which SHP2 degradation (%) 100 nM value is on record for Cc1ncsc1-c1ccc(CNC(=O)[C@@H]2C[C@@H](O)CN2C(=O)[C@@H](NC(=O)C2(F)CC2)C(C)(C)C)c(OCCCC2CCN(C(=O)C(=O)Nc3cccc(Sc4cnc(N5CCC(C)(CN)CC5)cn4)c3Cl)CC2)c1 [Example 28] ?
**A:** 76.5

src = patent US20250230154A1
